- Tested on: Fibroblast
- assay comment: Incucyte cell viability with human fibroblast; also: unitless GR value; below 1 slowed growth and below 0 cell loss
- Assay type: toxicity, cell-based
- cond: 12 h, 10 µM, compound concentration 10 uM, replicate number 1
Entries are sorted into classes by Growth Rate as follows: one = under 0, two = from 0 up to 0.6, three = 0.6 and over

molecule | tested target | category
COCc1nc2cnc3cc(-c4c(C)noc4C)c(OC[C@H]4CCNC4)cc3c2n1[C@H](C)c1ccccc1 [GSK778] | Fibroblast | three
CC(C)Oc1ccc(Cc2ccc(NC3=NCCN3)cc2)cc1 | Fibroblast | one
CC(C)(C)c1cnc(CSc2cnc(NC(=O)C3CCN(CC(=O)NCCOCCOCCOCCNc4cccc5c4C(=O)N(C4CCC(=O)NC4=O)C5=O)CC3)s2)o1 (configuration not stated) | Fibroblast | one
CCCCCCCN(CCc1ccc(SC(C)(C)C(=O)O)cc1)C(=O)Nc1ccc(F)cc1F [GSK-9578] | Fibroblast | three
CCN(C(=O)c1cc(F)ccc1Oc1cncnc1N1CC2(CCN(C[C@H]3CC[C@H](NS(=O)(=O)CC)CC3)CC2)C1)C(C)C [REVUMENIB] | Fibroblast | three
CCCCCCCC/C=C\CCCCCCCC(=O)NCCO [OLEOYLETHANOLAMIDE] | Fibroblast | three
CC(C)(C)c1ccc2c(c1)CC[C@H]2NC(=O)Nc1cccc2[nH]ncc12 [ABT-102] | Fibroblast | one
CS(=O)(=O)NC(=O)CCC/C=C\C[C@H]1C(=O)C[C@@H](O)[C@@H]1/C=C/[C@@H](O)COc1ccccc1 [SULPROSTONE] | Fibroblast | three
COc1cc(-c2nn([C@H]3CC[C@H](N4CCN(C(C)=O)CC4)CC3)c3ncnc(N)c23)ccc1NC(=O)c1cc2ccccc2n1C | Fibroblast | one
NC(=O)OC[C@H](NC(=O)Cn1nc(-c2ccc(Cl)cc2)n(C[C@H](O)C(F)(F)F)c1=O)c1cccc(C(F)(F)F)c1 | Fibroblast | three
Fc1ccc(-c2nc(-c3ccc4ccccc4c3F)[nH]c2-c2ccncc2)cc1 | Fibroblast | two
CNc1nc(NCc2ncccn2)c2c(-c3ccc4ncccc4c3)c[nH]c2n1 | Fibroblast | one
CNC(=O)c1c(F)cccc1Nc1nc(Nc2cc3c(cc2OC)CCN3C(=O)CN(C)C)nc2[nH]ccc12 | Fibroblast | two
CN1C(=O)Cc2ccc(-c3ccc(C[C@@H](C#N)NC(=O)[C@@H]4N[C@H]5CC[C@@H]4C5)c(F)c3)cc21 | Fibroblast | two

---

- System: Fibroblast
- assay comment: Incucyte cell viability with human fibroblast; also: unitless GR value; below 1 slowed growth and below 0 cell loss
- Type: toxicity, cell-based
- cond: 18 h, 10 µM, compound concentration 10 uM, replicate number 2

molecule | Growth Rate
CCN1CCN(Cc2ccc(NC(=O)c3ccc(C)c(Oc4ccnc5[nH]ccc45)c3)cc2C(F)(F)F)CC1.Cl.Cl.Cl.O | -0.03
CC(=O)O.Cc1cc2c(ncn2C2(C)CN(C(=O)c3ccn(CC4CCN([C@H]5C=CCCCC5)CC4)c3)C2)c(N)n1 | 0.98
CCOC(=O)c1cc2cc(-c3cc(C(=O)NCc4ccc(C(=O)O)cc4)nn3C)ccc2[nH]1 [BI 4394] | 0.7
CN1CCC(F)(Cn2cnc(-c3ccc(F)cn3)c2-c2ccnc3[nH]ccc23)CC1 | 0.68
Cc1c(C(=O)Nc2cccc(C(F)(F)F)c2)cc(-c2ccccc2)n1CCCN1CCOCC1.Cl | 0.73
CC(C)(C)OC(=O)CN1C(=O)c2c(OCC(=O)O)cccc2Oc2ccc(C(F)(F)F)cc21 | 0.87
CN(CC(=O)Nc1ccc(F)c(F)c1F)C(=O)c1ccc2c(c1)OCCO2 | 0.78
Cc1nnc2n1-c1sc3c(c1C(c1ccccc1Cl)=NC2)CC(C(=O)N1CCOCC1)C3 (stereo unspecified) [BEPAFANT] | 0.79
CC1(C)CCN(C(=O)C2CN(c3c4c(nc5ccnn35)CCNCC4)C2)C1.O=C(O)C(F)(F)F | 0.86
OC(c1ccc(-c2ccc(CN3CCN(Cc4ccncc4)CC3)cc2)c(F)c1)(C(F)(F)F)C(F)(F)F | -0.18
c1ccc(C2CCN(c3cnc4c(N5CCOCC5)nccn34)CC2)cc1 | 0.64
CN1CCN(c2ccc(-n3cc(-c4ccncc4OCC4CCNCC4)cn3)cc2)CC1 | 0.19
CC(C)c1ccc(/C=N/NC(=O)c2ccc(O)cc2)cc1 | 0.57
O=C(O)C(F)(F)F.O=C1NC(=O)/C(=C/c2c[nH]c(=O)c(-c3ccc(N4CCNCC4)nc3)c2)S1 | 0.69
Cc1cc(Nc2ncc(Cl)c(Nc3ccccc3S(=O)(=O)C(C)C)n2)c(OC(C)C)cc1C1CCNCC1 [CERITINIB] | -0.93
O=C(O)c1cc(-c2ccccc2)ccc1O | 0.67
Cc1cc2c(cc(C(=O)N[C@H](CO)c3ccc(S(=O)(=O)CC(=O)O)cc3)n2C)c(Cl)c1Cl | 0.68
CCNCCNC(=O)c1c(C)[nH]c(/C=C2\C(=O)Nc3ccc(F)cc32)c1C | 0.18
CC[N+](CC)(CC)CCOc1ccc(/C=C/c2ccccc2)cc1.[I-] [STILONIUM IODIDE] | 0.62
FC(F)(F)Oc1ccc(-c2ccc3nnc(C(F)(F)F)n3c2)cc1 | 0.75
Cc1ccc2c(N)c(C(=O)NC3CCc4cc(N5CC6CCC(C5)N6)ccc4C3)sc2n1.O=CO (stereo unspecified) | -0.26
O=C(NC1CCNCC1)c1n[nH]cc1NC(=O)c1c(Cl)cccc1Cl [AT-7519] | -0.23
CC(C)c1cnn2c(NCc3ccccc3)cc(NCCCCCCN)nc12.Cl | 0.69
Cc1cc2nc(N3CCC(C(=O)NC4CCCC4)CC3)n(C(C)C)c2cc1C | 0.7
c1ccc2nc(N3CCNCC3)ccc2c1 [QUIPAZINE] | 0.72
CCO[C@H](COc1ccc(C(F)(F)F)cc1)CSc1ccc(OCC(=O)[O-])c(C)c1.[Na+] | 0.97
Cc1c(C(=O)NCCCN(C)C)sc2ncnc(Nc3ccc(F)cc3OC(C)CF)c12 (stereo unspecified) | 0.93
Cc1nc2ccc(Oc3ccc(F)cc3)cc2c(=O)n1C[C@H]1CCCN(C(C)C)C1.Cl | 0.69
Cc1cc2ncnn2cc1Nc1ncc2c(n1)n(C1CCOCC1)c(=O)n2C [AZD-7648] | 0.83
COc1cc(C(=O)NCCOCCOCCOCC(=O)N[C@H](C(=O)N2C[C@H](O)C[C@H]2C(=O)NCc2ccc(-c3scnc3C)cc2)C(C)(C)C)ccc1Nc1ncc(C(F)(F)F)c(Oc2cccc3c2C(=O)CC3)n1 | 0.85
CC[C@@H]1C(=O)N(C)c2cnc(Nc3ccc(C(=O)NC4CCN(C)CC4)cc3OC)nc2N1C1CCCC1 [BI-2536] | 0.83
Cc1nsc(Nc2cnc(C(F)(F)F)cn2)c1C(=O)Nc1ccc(O[C@H]2CCCN(CC(F)(F)F)C2)nc1 | -0.45
Cc1ccc(NC(=O)c2ccc3cnccc3c2)cc1C(=O)Nc1cnc(Nc2cccc(NC3CCN(C(=O)/C=C/CN(C)C)CC3)c2)nc1 | -0.42
N[C@@H](CC(=O)O)Cn1nnc(-c2ccc(Oc3ncc(Cl)cc3F)cc2)n1 | 0.74
Cc1[nH]c2c(N3CCCCC3)c(-c3ccccc3)nn2c(=O)c1-c1ccc(O)cc1 | 0.35
O=C1CCC(N2Cc3cc(CNC(=O)C(F)(F)c4ccc(Cl)cc4)ccc3C2=O)C(=O)N1 (stereo unspecified) | 0.98
